tested on: SW480; assay: TCF/Wnt firefly luciferase reporter signal relative to plate median (fraction of plate median); higher = higher Wnt reporter signal; conditions: 5 µM; treatment time 24 h; reporter: 7TFP
Rule: met for TCF/Wnt firefly luciferase reporter signal not less than 1, not met for anything less.

Consider the worked cases shown below.
O=C(Oc1cc(O)cc2c1C[C@@H](OC(=O)c1cc(O)c(O)c(O)c1)[C@@H](c1cc(O)c(O)c(O)c1)O2)c1cc(O)c(O)c(O)c1    not met
CC(C)COCC(CN(Cc1ccccc1)c1ccccc1)N1CCCC1 (stereo not given)    not met

*Q* Is it the case that "COC1=CC(=O)C(C(=O)c2ccccc2)=CC1=O" has TCF/Wnt firefly luciferase reporter signal reaching or exceeding 1?
*A* met

*Q* Is it the case that CCN(CC)C(C)CN1c2ccccc2Sc2ccccc21 (stereo not given) has TCF/Wnt firefly luciferase reporter signal reaching or exceeding 1?
*A* met

*Q* Is it the case that "CN(C)CCOC(c1ccccc1)c1ccccc1" has TCF/Wnt firefly luciferase reporter signal reaching or exceeding 1?
*A* met

* * *

tested on: HCT116; test: cell viability (CellTiter-Glo) relative to plate median (fraction of plate median); higher = more viable cells; details: 10 µM; treatment time 24 h; reporter: TCF4/Wnt
Cut-off 1 on cell viability: below means Met, at or above means Not met.

Consider the worked cases shown below.
Cn1cc(-c2ccc3nnc(C(F)(F)c4ccc5ncccc5c4)n3n2)cn1    Not met
CCN(CC)CCNC(=O)c1c(C)[nH]c(/C=C2\C(=O)Nc3ccc(F)cc32)c1C [Sunitinib Malate (Sutent)]    Met
Cn1cnc2c(F)c(Nc3ccc(Br)cc3Cl)c(C(=O)NOCCO)cc21 [AZD6244 (Selumetinib)]    Met
C[C@@H](N)[C@H]1CC[C@H](C(=O)Nc2ccncc2)CC1    Not met
FC(F)(F)c1ccc(Nc2nc3ccc(Oc4ccnc(-c5ncc(C(F)(F)F)[nH]5)c4)cc3[nH]2)cc1    Not met
COc1ccc(COc2cc3oc(=O)c4cc(C(C)O)ccc4c3cc2OC)cc1 (stereo not given)    Not met
NC(=O)c1ccc(-c2nc(-c3ccccn3)c(-c3ccc4c(c3)OCO4)[nH]2)cc1    Not met
CC[C@H](CO)Nc1nc(NCc2ccccc2)c2ncn(C(C)C)c2n1 [Roscovitine (Seliciclib, CYC202)]    Met

Consider the record given below.
*Q* I'd appreciate it if you could check whether "Cc1ccc(C(=O)Nc2cccc(C(F)(F)F)c2)cc1Nc1nc(-c2cccnc2)nc2c1cnn2C" has cell viability smaller than 1.
*A* Met

* * *

compounds and their reported cell viability
system: DLD1; assay: cell viability (CellTiter-Glo) relative to plate median (fraction of plate median); higher = more viable cells; conditions: 5 µM; treatment time 24 h; reporter: 7TFP
Just the number, please, no unit after it.

Answered cases to consult:
C[C@]12CCC(=O)C=C1CC[C@@H]1[C@@H]2[C@@H](O)C[C@@]2(C)[C@H]1CC[C@]2(O)C(=O)CO    1.06
NCCCCC(=O)O    0.936
CN[C@H](CC(C)C)C(=O)N[C@H]1C(=O)N[C@@H](CC(N)=O)C(=O)N[C@H]2C(=O)N[C@H]3C(=O)N[C@H](C(=O)N[C@H](C(=O)O)c4cc(O)cc(O)c4-c4cc3ccc4O)[C@H](O)c3ccc(c(Cl)c3)Oc3cc2cc(c3O[C@@H]2O[C@H](CO)[C@@H](O)[C@H](O)[C@H]2O[C@H]2C[C@](C)(N)[C@H](O)[C@H](C)O2)Oc2ccc(cc2Cl)[C@H]1O    1.08
COc1cc(O)ccc1C(C)=O    0.941

# cell viability of "Nc1ccc(C(=O)O)c(O)c1" = 1.01

# cell viability of "CN(C)CCc1c[nH]c2ccc(C[C@H]3COC(=O)N3)cc12" = 0.931

# cell viability of CN[C@@H]1[C@@H](O[C@H]2O[C@H](CO)[C@@H](N)[C@H](O)[C@H]2O)OC2C[C@@H](N)[C@@H](O[C@H]3[C@H](O)[C@@H](O)[C@H](N)C[C@@H]3N)OC2[C@@H]1O (stereo partly drawn) = 0.893

# cell viability of "COc1ccc(-c2cc(=O)c3c(O)cc(OC)c(OC)c3o2)c(OC)c1" = 0.978

# cell viability of "CCCc1nc(C(C)(C)O)c(C(=O)OCc2oc(=O)oc2C)n1Cc1ccc(-c2ccccc2-c2nnn[nH]2)cc1" = 0.99

# cell viability of "COC1=C(O)C(=O)c2c(cc3oc(C(C)=O)c(O)c3c2O)C1=O" = 1.03

# cell viability of CC1CCc2cc(F)cc3c(=O)c(C(=O)O)cn1c23 (stereo not drawn) = 1.05

# cell viability of "OCc1c[nH]c2ccccc12" = 1.01

# cell viability of CC(=O)OC(C)C[N+](C)(C)C (stereo not drawn) = 0.968

# cell viability of "COc1cc(O)c2c(=O)cc(C)oc2c1CC=C(C)C" = 1.04

# cell viability of O=C1[C@@H]2CCCN2C(=O)[C@@H]2CCCN12 [Cyclo(Prolylprolyl)] = 0.978

# cell viability of "COC(=O)CC[C@@H](C)[C@H]1CC[C@H]2[C@@H]3CC[C@@H]4C[C@H](O)CC[C@]4(C)[C@H]3C[C@H](O)[C@]12C" = 0.964

# cell viability of "CC(C)=CCOc1cc2oc(=O)ccc2cc1O" = 1.08

# cell viability of "CCOC(=O)[C@H](CCc1ccccc1)N[C@H]1CCc2ccccc2N(CC(=O)O)C1=O" = 0.871
